assay: qHTS assay to identify small molecule agonists of the estrogen receptor beta (ER-beta) signaling pathway - cell viability counter screen (AID 1259380); details: ER-beta-bla HEK293T viability, CellTiter-Glo luminescence, 16 h; series mostly up to 92.4 µM; note: nearly all actives have a fitted effect of over 30% in size
Results filed as inconclusive are left out. Active and inactive are the calls of the source. Calls come from the whole dose curve; as a rule, active = well fitted cell-killing curve with a large enough effect in the repeat runs; inconclusive = weak or mixed curves, or effect the other way; inactive = flat fitted curve, though single readings scatter.
API: response.call in active, inactive

# input I would be grateful if you could indicate the recorded call for "COc1ccc(C(=O)N2CCN(CC(=O)N3CCOCC3)CC2)cc1" .
# output inactive

# input I would be grateful if you could indicate the recorded call for "O=C(Cl)c1cc(C(=O)Cl)cc(C(=O)Cl)c1" .
# output inactive

# input I would be grateful if you could indicate the recorded call for "C#C[C@]1(O)CC[C@H]2[C@@H]3CCc4cc(OC5CCCC5)ccc4[C@H]3CC[C@@]21C" .
# output active

# input I would be grateful if you could indicate the recorded call for "Nc1cccc(S(=O)(=O)c2cccc(N)c2)c1" .
# output inactive

# input I would be grateful if you could indicate the recorded call for "COc1ccc(C)cc1[N+](=O)[O-]" .
# output inactive

# input I would be grateful if you could indicate the recorded call for CCC(C)c1cc(C(C)(C)C)c(O)c(C(C)(C)C)c1 (configuration not stated) .
# output inactive

# input I would be grateful if you could indicate the recorded call for "CN(C)c1ccc(C(c2ccccc2)c2ccc(N(C)C)cc2)cc1" .
# output active

# input I would be grateful if you could indicate the recorded call for "O=C(O)c1ccccc1Cl" .
# output inactive

# input I would be grateful if you could indicate the recorded call for "C=C1[C@H]2CC[C@@H]3[C@H]2C(C)(C)CCC[C@]13C" .
# output inactive

====

target: Cytochrome P450 2C19 (Homo sapiens) (UniProt P33261); assay: Cytochrome P450 Family 2 Subfamily C Member 19 (CYP2C19) small molecule antagonists: luciferase reporter qHTS assay (AID 1671197); settings: P450-Glo CYP2C19 enzyme, luciferin luminescence, 1 h; series mostly up to 52.9 µM; note: nearly all actives have a fitted effect of over 65% in size
Sequence (P33261 whole entry, looked up): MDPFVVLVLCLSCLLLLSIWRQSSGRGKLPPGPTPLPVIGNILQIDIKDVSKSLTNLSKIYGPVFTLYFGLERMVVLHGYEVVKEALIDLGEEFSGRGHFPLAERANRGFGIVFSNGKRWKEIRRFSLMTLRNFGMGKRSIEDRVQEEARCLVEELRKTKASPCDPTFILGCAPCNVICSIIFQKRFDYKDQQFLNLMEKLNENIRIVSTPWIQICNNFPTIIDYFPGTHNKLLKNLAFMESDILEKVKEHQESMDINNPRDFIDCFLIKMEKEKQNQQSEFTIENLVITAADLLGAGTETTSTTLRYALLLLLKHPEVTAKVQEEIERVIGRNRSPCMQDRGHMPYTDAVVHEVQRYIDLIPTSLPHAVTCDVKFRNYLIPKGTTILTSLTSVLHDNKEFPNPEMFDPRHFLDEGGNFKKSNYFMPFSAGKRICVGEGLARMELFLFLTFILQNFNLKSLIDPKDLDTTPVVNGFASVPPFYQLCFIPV
Inconclusive results are not listed. The source made the active and inactive calls. Calls come from the whole dose curve; as a rule, active = well fitted inhibition curve with a large enough effect in the repeat runs; inconclusive = weak or mixed curves; inactive = no such curve, though single readings can be large or run the other way.
API: response.call in active, inactive

Solved entries:
[[record]]
molecule = "COc1ccc2cccc(CCNC(C)=O)c2c1"
class_name = "active"

[[record]]
molecule = "CN1CCC(=C2c3ccccc3Sc3ccccc32)CC1"
class_name = "active"

[[record]]
molecule = "CC(C)C[C@H]1C(=O)N2CCC[C@H]2[C@]2(O)O[C@](NC(=O)[C@@H]3C=C4c5cccc6[nH]c(Br)c(c56)C[C@H]4N(C)C3)(C(C)C)C(=O)N12"
class_name = "active"

[[record]]
molecule = "O=C(CS)Nc1ccccc1"
class_name = "active"

[[record]]
molecule = "Cc1c(N)cccc1[N+](=O)[O-]"
class_name = "inactive"

[[record]]
molecule = "Nc1cccc(S(=O)(=O)c2cccc(N)c2)c1"
class_name = "active"

[[record]]
molecule = "S=C([S-])NCCNC(=S)[S-].[Mn+2]"
class_name = "active"

[[record]]
molecule = "Nc1ccccc1S(=O)(=O)c1ccccc1"
class_name = "inactive"


# input I would be grateful if you could indicate the recorded call for "C#CCN(C)CCCOc1ccc(Cl)cc1Cl" .
# output active

# input I would be grateful if you could indicate the recorded call for "CCN(CC)c1ccc2c(-c3ccccc3C(=O)O)c3ccc(=[N+](CC)CC)cc-3oc2c1" .
# output active

# input I would be grateful if you could indicate the recorded call for CCOC(=O)C(O)c1ccccc1 (centres undefined) .
# output inactive

# input I would be grateful if you could indicate the recorded call for "CC(C)(CO)[N+](=O)[O-]" .
# output inactive

# input I would be grateful if you could indicate the recorded call for "C1CCCNCCC1" .
# output inactive

# input I would be grateful if you could indicate the recorded call for CCOCC(O)COc1ccc(NC(=O)CC[S+](C)C)cc1 (centres undefined) .
# output inactive

# input I would be grateful if you could indicate the recorded call for "NS(=O)(=O)c1ccc(N2CCCCS2(=O)=O)cc1" .
# output inactive

# input I would be grateful if you could indicate the recorded call for "CCO[C@H](Cc1ccc(OCCc2ccc(OS(C)(=O)=O)cc2)cc1)C(=O)O" .
# output inactive

# input I would be grateful if you could indicate the recorded call for O=C(O)C(S)C(S)C(=O)O (centres undefined) .
# output inactive

# input I would be grateful if you could indicate the recorded call for CCCCC(CC)CN1C(=O)C2C3C=CC(C3)C2C1=O (centres undefined) .
# output active

====

assay: A CellTox Green Cytotoxicity Assay to monitor cytotoxicity in HEK293 cells - 8 hour (AID 1224884); settings: CellTox Green fluorescence; series mostly up to 76.8 µM; note: nearly all actives have a fitted effect of over 35% in size
Inconclusive results are not listed. Calls of active or inactive are those of the source. Calls come from the whole dose curve; as a rule, active = well fitted activation curve with a large enough effect in the repeat runs; inconclusive = weak or mixed curves; inactive = flat fitted curve, though single readings scatter.
API: response.call in active, inactive

[[record]]
compound = "O=C1c2ccccc2S(=O)(=O)N1CCCCN1CCN(c2ncccn2)CC1"
class_name = "inactive"


# input I would be grateful if you could indicate the recorded call for "CCOc1ccc(N)c([N+](=O)[O-])c1" .
# output inactive

# input I would be grateful if you could indicate the recorded call for "COC(C)OC" .
# output inactive

# input I would be grateful if you could indicate the recorded call for "CNCCCCOc1ccccc1Cc1ccccc1" .
# output inactive

# input I would be grateful if you could indicate the recorded call for "O=[N+]([O-])c1ccc2[nH]ncc2c1" .
# output inactive

# input I would be grateful if you could indicate the recorded call for "CC(=O)c1ccc2c(c1)N(CCCN1CCC(CCO)CC1)c1ccccc1S2" .
# output inactive

# input I would be grateful if you could indicate the recorded call for "CCCCCCCC#N" .
# output inactive

====

experiment: A CellTox Green Cytotoxicity Assay to monitor cytotoxicity in HEK293 cells - 24 hour (AID 1224875); details: CellTox Green fluorescence; series mostly up to 76.8 µM; note: nearly all actives have a fitted effect of over 45% in size
Records with an inconclusive call do not appear. Calls of active or inactive are those of the source. The call rests on the fitted dose curve; in most records, active means well fitted activation curve with a large enough effect in the repeat runs; inconclusive means weak or mixed curves; inactive means flat fitted curve, though single readings scatter.
API: response.call in active, inactive

[[record]]
molecule = "NCc1ccccc1Sc1ccccc1CO"
class_name = "inactive"


# input I would be grateful if you could indicate the recorded call for COc1ccc(-c2nc3ccc(C4=NNC(=O)CC4C)cc3[nH]2)cc1 (configuration not stated) .
# output inactive

# input I would be grateful if you could indicate the recorded call for "CCCCc1ncc(/C=C(\Cc2cccs2)C(=O)O)n1Cc1ccc(C(=O)O)cc1" .
# output inactive

# input I would be grateful if you could indicate the recorded call for "CC(=O)c1ccc2c(c1)N(CCCN(C)C)c1ccccc1S2" .
# output inactive

# input I would be grateful if you could indicate the recorded call for "O=C(O)c1ccco1" .
# output inactive

# input I would be grateful if you could indicate the recorded call for CN(C)CCOC(c1ccccc1)c1ccc(Br)cc1 (configuration not stated) .
# output inactive

# input I would be grateful if you could indicate the recorded call for "C[C@@H]1C[C@H]2O[C@@]3(O[C@@H]2C(C)(C)O)[C@H](O)[C@@]2(C)[C@@H]4CC[C@H]5C(C)(C)[C@@H](O[C@@H]6OC[C@@H](O)[C@H](O)[C@H]6O)CC[C@@]56C[C@@]46CC[C@]2(C)[C@@H]13" .
# output inactive

# input I would be grateful if you could indicate the recorded call for "O=C(O)C1(C(=O)O)CCC1.[NH2-].[NH2-].[Pt+2]" .
# output inactive

====

assay: qHTS assay to identify small molecule antagonists of the estrogen related receptor (ERR) signaling pathway from Tox21 library (AID 1224848); conditions: ERR reporter cell line, luciferase antagonist mode, 18 h; series mostly up to 92.4 µM; note: nearly all actives have a fitted effect of over 50% in size
Records with an inconclusive call do not appear. Calls of active or inactive are those of the source. Calls come from the whole dose curve; as a rule, active = well fitted inhibition curve with a large enough effect in the repeat runs; inconclusive = weak or mixed curves; inactive = no such curve, though single readings can be large or run the other way.
API: response.call in active, inactive

Solved entries:
[[record]]
compound = "C=CCOc1ccccc1OCC(O)CNC(C)C (configuration not stated)"
class_name = "inactive"

[[record]]
compound = "Cc1ncc(CO)c(C=O)c1O"
class_name = "inactive"

[[record]]
compound = "CCCCC(CC)COC(=O)CCCCCCCCC(=O)OCC(CC)CCCC (configuration not stated)"
class_name = "inactive"


# input I would be grateful if you could indicate the recorded call for "CO[C@@H]1[C@H](OC(=O)/C=C/C=C/C=C/C=C/C(=O)O)CC[C@]2(CO2)[C@H]1[C@@]1(C)O[C@@H]1CC=C(C)C" .
# output inactive

# input I would be grateful if you could indicate the recorded call for "COC(C)(C)CCO" .
# output inactive

====

experiment: qHTS assay for small molecule agonists of the antioxidant response element (ARE) signaling pathway - cell viability counter screen (AID 743203); conditions: ARE-bla HepG2 viability, CellTiter-Glo luminescence, 16 h; series mostly up to 73.3 µM; note: nearly all actives have a fitted effect of over 55% in size
Results filed as inconclusive are left out. Activity calls are given as the source filed them. Calls follow the shape of the full dose curve.
API: response.call in y for active, n for inactive

Solved entries:
[[record]]
compound = "CCC(Cl)CCC(Cl)C(Cl)CC(Cl)C(Cl)C(Cl)CCl (stereo unspecified)"
class_name = "n"

[[record]]
compound = "CCCCc1nc2cccnc2n1Cc1ccc(-c2ccccc2-c2nnn[nH]2)cc1"
class_name = "n"

[[record]]
compound = "CCO[Si](CCCCl)(OCC)OCC"
class_name = "n"

[[record]]
compound = "COc1ccnc(CS(=O)c2nc3ccc(OC(F)F)cc3[nH]2)c1OC (stereo unspecified)"
class_name = "n"

[[record]]
compound = "CCCCCCCCCOS(=O)(=O)O"
class_name = "n"


# input I would be grateful if you could indicate the recorded call for "CCCCCCCCCCCCCCCCCCOS(=O)(=O)O" .
# output y
